- System: HOP-92 NSCLC
- MEASUREMENT_PROTOCOL: NCI-60 one-dose screen, 48 h (100 = growth as untreated, 0 = no growth, -100 = all killed)
- ASSAY_CONDITIONS: 10 µM
The panel holds about 83,000 compounds, 20% with a hit somewhere; the sample as a whole holds those more often.
growth listing for selected compounds.
Give the value, in units of %, as a plain number.

Examples from the recorded data:
| COMPOUND | ENDPOINT_UNIT | growth |
| --- | --- | --- |
| CCCCCCCCCCCCCCCc1ccc(Cl)c(O)c1Cl (tested in a mixture with another compound) | % | 105 |
| O=C(O)c1sccc1O | % | 66.9 |

Report the value of growth obtained on HOP-92 NSCLC for CC1(C)OB(c2ccc(Cn3cc(F)c(=O)[nH]c3=O)cc2)OC1(C)C .
98.3

----------
growth listing for selected molecules.
- System: OVCAR-8 ovarian
- MEASUREMENT_PROTOCOL: NCI-60 one-dose screen, 48 h (100 = growth as untreated, 0 = no growth, -100 = all killed)
- ASSAY_CONDITIONS: 10 µM unless noted
This is part of a sample that, as a whole, favours compounds with a hit. Of some 83,000 tested, about 20% had one in any assay. Activity calls are given as the source filed them. Rule for the calls: active = growth percent below 10; inactive = the rest.

Examples from the recorded data:
| MOLECULE | growth |
| --- | --- |
| COc1ccc(NC(=S)Nc2ccccn2)cc1 | 96.5% (inactive) |
| CCC(=O)C(CC)c1cccc(OC)c1 (stereo not drawn) | 105% (inactive) |

Continue with the molecule presented below.
Fill in reported growth for this entry: NC(=S)N/N=C(\c1ccc(Br)cc1)C1CC1
83% (inactive)

----------
- System: MOLT-4 leukemia
- MEASUREMENT_PROTOCOL: NCI-60 one-dose screen, 48 h
- ASSAY_CONDITIONS: 10 µM unless noted
- Protocol: Growth inhibition of the MOLT-4 human tumor cell line is measured as a screen for anti-cancer activity. Cells are grown in 96 well plates and exposed to the test compound for 48 hours. Compounds are tested at a single concentration, which is 10^-5 M for most compounds. The reported endpoint is percent growth (GI% or GIPRCNT), where numbers from 0 - 100% represent growth inhibition, and numbers from -100% - 0 represent cell death. For example, a value of 40 represents 60% growth inhibition. […]
This is part of a sample that, as a whole, favours compounds with a hit. Of some 83,000 tested, about 20% had one in any assay. The source made the active and inactive calls. Rule for the calls: active = growth percent below 10; inactive = the rest.
Response enum: active, inactive

These recorded examples may help you get a feel for the data.
| COMPOUND | STUDY_TARGET | CAT |
| --- | --- | --- |
| CC1=C(/C=C/C(C)=C/C=C/C(C)=C/C(=O)Nc2ccc(O)cc2)C(C)(C)CCC1 | MOLT-4 leukemia | active |
| CCOC(=O)c1sc(N)nc1-c1ccccc1 | MOLT-4 leukemia | inactive |
| O[C@H](c1cc(C(F)(F)F)nc2c(C(F)(F)F)cccc12)[C@@H]1CCCCN1 | MOLT-4 leukemia | inactive |

Which outcome did this test record for the compound CC1=NN(c2ccccc2)C(=O)C1C(=O)c1ccccc1 (stereo unspecified) ?
inactive

Which outcome did this test record for the compound c1ccc(N(c2ccccc2)c2ccccc2)cc1 ?
inactive

----------
growth listing for selected compounds.
- System: 786-0 renal
- MEASUREMENT_PROTOCOL: NCI-60 one-dose screen, 48 h (100 = growth as untreated, 0 = no growth, -100 = all killed)
- ASSAY_CONDITIONS: 10 µM unless noted
About 83,000 compounds went through this panel and 20% of them were active in at least one assay; those are over-represented in the sample as a whole.
Give the value, in units of %, as a plain number.

| COMPOUND | NUMERIC_RESULT |
| --- | --- |
| O=C(O)CSCc1nc2ccccc2[nH]1 | 103 |
| Cc1c(Cl)cccc1NCN1C(=O)c2ccccc2C1=O | 103 |
| N=C1N=C(N)CS1 | 103 |

Fill in reported growth for this entry: Cc1n[nH]c(=O)n(/N=C\c2c[nH]c3ccccc23)c1=O
123

Fill in reported growth for this entry: CC(=O)C(/C=N/C(N)=O)=C(/C)O
104

Fill in reported growth for this entry: Nc1ccc2[nH]c(-c3ccccc3)cc(=O)c2c1
96.6

Fill in reported growth for this entry: CC1=NN(c2ccccc2)C(=O)C1C(=O)c1ccccc1 (configuration not stated)
101

Fill in reported growth for this entry: O=[N+]([O-])c1ccc2nc3c4ccccc4c4ccccc4c3nc2c1
88.6

Fill in reported growth for this entry: CC(/C=N/N1C(=O)c2ccccc2C1=O)c1ccccc1 (configuration not stated)
102

Fill in reported growth for this entry: O=C(CCc1ccc(O)cc1)N/N=C/c1cc(Br)ccc1O
42

Fill in reported growth for this entry: O=C1c2ccccc2C(=O)N1/N=C/c1ccc2c(c1)OCO2
104

Fill in reported growth for this entry: CCOC(=O)C(CNc1ccccc1)C(=O)OCC
100

----------
- Tested on: SK-MEL-28 melanoma
- MEASUREMENT_PROTOCOL: NCI-60 one-dose screen, 48 h (100 = growth as untreated, 0 = no growth, -100 = all killed)
- ASSAY_CONDITIONS: 10 µM
Compounds without any hit were thinned out: in the full panel of roughly 83,000, 20% have a hit.
growth listing for selected compounds.
Give the value, in units of %, as a plain number.

Examples from the recorded data:
| COMPOUND | STUDY_TARGET | NUMERIC_RESULT |
| --- | --- | --- |
| CCc1ccccc1-n1c(N)c(C#N)c(-c2ccc(OC)c(OC)c2)c(C#N)c1=O | SK-MEL-28 melanoma | 124 |
| CC#C[C@]1(O)CC[C@H]2[C@@H]3CCC4=CC(=O)CCC4=C3[C@@H](c3ccc4c(c3)OCO4)C[C@@]21C | SK-MEL-28 melanoma | 108 |
| Cc1[nH]c(-c2nc3ccccc3[nH]2)c(C)c1C(=O)NC(C)C1CCCCC1 (stereo not given) | SK-MEL-28 melanoma | 89.2 |
| O=C(O)c1sccc1O | SK-MEL-28 melanoma | 101 |

Continue with the compound presented below.
Report the value of growth obtained on SK-MEL-28 melanoma for CC(C)(C)c1cc(NC(=O)Cc2ccc(-c3cnc4cc(-c5cnn(CCN6CCOCC6)c5)ccc4n3)cc2)no1 .
29.4

----------
- Tested on: OVCAR-3 ovarian
- MEASUREMENT_PROTOCOL: NCI-60 one-dose screen, 48 h (100 = growth as untreated, 0 = no growth, -100 = all killed)
- ASSAY_CONDITIONS: 10 µM unless noted
About 83,000 compounds went through this panel and 20% of them were active in at least one assay; those are over-represented in the sample as a whole. Activity calls are given as the source filed them. How the source made its calls: active means growth percent below 10; inactive means the rest.
METRIC: growth

| COMPOUND | growth |
| --- | --- |
| CC1=NN(c2ccccc2)C(=O)C1C(=O)c1ccccc1 (stereo not given) | 102% (inactive) |
| CNC(=O)c1cccnc1 | 116% (inactive) |
| O=C=NC(c1ccccc1)(c1ccccc1)c1ccccc1 | 116% (inactive) |
| O=C(N/N=C/c1ccccc1)N/N=C/c1ccccc1 | 120% (inactive) |

Continue with the compound presented below.
Fill in reported growth for this entry: CC1(c2ccc3ccccc3c2)CCC(=O)O1 (stereo not given)
105% (inactive)

----------
- Tested on: PC-3 prostate
- MEASUREMENT_PROTOCOL: NCI-60 one-dose screen, 48 h (100 = growth as untreated, 0 = no growth, -100 = all killed)
- ASSAY_CONDITIONS: 10 µM unless noted
Compounds without any hit were thinned out: in the full panel of roughly 83,000, 20% have a hit.
METRIC: growth (%)
Give the value, in units of %, as a plain number.

| MOLECULE | growth / % |
| --- | --- |
| O=[N+]([O-])c1ccc(-n2[nH]nnc2=S)cc1 | 92 |
| CCCCCCCCCCCCCCCCOc1ccc(C)cc1 | 102 |
| O=C(CCc1ccc(O)cc1)N/N=C/c1cc(Br)ccc1O | 38.8 |
| OC(COc1cccc2ccccc12)CN1CCN(c2ccc(Cl)cc2)CC1 (configuration not stated) | 88.4 |
| O=[N+]([O-])c1ccc2nc3c4ccccc4c4ccccc4c3nc2c1 | 55.1 |
| O=C(/C=C/c1ccccn1)c1ccccc1O | 82.8 |
| CC1=C(/C=C/C(C)=C/C=C/C(C)=C/C(=O)Nc2ccc(O)cc2)C(C)(C)CCC1 | 52.2 |
| Clc1nc(Oc2ccccc2)nc(-c2cn(-c3ccccc3)c3ccccc23)n1 | 41.3 |

Fill in reported growth for this entry: C1CCCCNCCC1
101

Fill in reported growth for this entry: CC1(c2ccc3ccccc3c2)CCC(=O)O1 (configuration not stated)
97.9

Fill in reported growth for this entry: O=C(O)c1cc(C(=O)O)cc([N+](=O)[O-])c1
96.4

Fill in reported growth for this entry: CCCCCCCCCCCCOc1ccccc1C=O
108

Fill in reported growth for this entry: S=C1SCN(Cc2ccccc2)CN1Cc1ccccc1
46.6

Fill in reported growth for this entry: CC12CCC(CC1)C(C)(C)O2
99.7

Fill in reported growth for this entry: Nc1ccc2ccc(N)cc2c1
60.3

Fill in reported growth for this entry: CCc1c(CC(=O)O)c2cc(C)ccc2n1Cc1ccc(Cl)cc1
95

Fill in reported growth for this entry: O=C1CCN(Cc2ccccc2)C(=S)N1
92.3

Fill in reported growth for this entry: CC(C(=O)O)n1cc(C#N)c(=O)[nH]c1=O (configuration not stated)
95.3

Fill in reported growth for this entry: O=C(N/N=C/c1ccccc1)N/N=C/c1ccccc1
97.7

Fill in reported growth for this entry: OCc1ccccn1
97.8

Fill in reported growth for this entry: Oc1ccccc1C=NCC1CCC(CN=Cc2ccccc2O)CC1 (configuration not stated)
77.8

Fill in reported growth for this entry: Cc1cc(N=Nc2ccc(C)c(N=Nc3cc(C)c(N)cc3N)c2)c(N)cc1N
64.6

Fill in reported growth for this entry: N=C1N=C(N)CS1
101

Fill in reported growth for this entry: Cc1ccc(-c2noc(C)n2)cc1
97.9

Fill in reported growth for this entry: O=C(O)CSCc1nc2ccccc2[nH]1
95.5

Fill in reported growth for this entry: O=C1c2ccccc2C(=O)N1/N=C/c1ccc2c(c1)OCO2
74.1

Fill in reported growth for this entry: CN(C)c1ccc(C(=C2C=CC(=[N+](C)C)C=C2)c2ccccc2Cl)cc1
-19.5
